Data credit: ChEMBL document CHEMBL3351677

# Species on record: Homo sapiens
# assay_comment: Selectivity ratio of maximum inhibition of recombinant human ERbeta to maximum inhibition of recombinant human ERalpha by competitive binding assay
experimental_readout: Selectivity ratio
Hey, just send me the number, nothing else.

Some solved cases for reference:
Prompt: # input molecule: "CCCn1cc(-c2ccc(O)cc2)c(=O)c2c(O)cc(O)cc21" ; wanted: its Selectivity ratio
Completion: 1.4

Prompt: Also "CCn1cc(-c2ccc(O)cc2)c(=O)c2c(O)cc(O)cc21" ?
Completion: 1.6

Prompt: Also "O=c1c(-c2ccc(O)cc2)c[nH]c2cc(O)cc(O)c12" ?
Completion: 12

More entries:
Prompt: # input molecule: "Cn1cc(-c2ccc(O)cc2)c(=O)c2c(O)cc(O)cc21" ; wanted: its Selectivity ratio
Completion: 2.6
